Where do the numbers come from? From patent US7652047B2.

biological target: MEK1^CA (human GST-MEK1, constitutively active, Ser218Asp and Ser222Asp) (Homo sapiens, UniProt Q02750, S218D/S222D); construct: GST; made in house; host or cells: Escherichia coli; test: MEK1 enzymatic activity assay (MEK1^CA / ERK2 / MBP, [γ-33P]ATP incorporation); format: biochemical; settings: Table 4, R' is (CH2)1 or 2-G; read-out: IC50
Sequence (Q02750 whole entry S218D/S222D): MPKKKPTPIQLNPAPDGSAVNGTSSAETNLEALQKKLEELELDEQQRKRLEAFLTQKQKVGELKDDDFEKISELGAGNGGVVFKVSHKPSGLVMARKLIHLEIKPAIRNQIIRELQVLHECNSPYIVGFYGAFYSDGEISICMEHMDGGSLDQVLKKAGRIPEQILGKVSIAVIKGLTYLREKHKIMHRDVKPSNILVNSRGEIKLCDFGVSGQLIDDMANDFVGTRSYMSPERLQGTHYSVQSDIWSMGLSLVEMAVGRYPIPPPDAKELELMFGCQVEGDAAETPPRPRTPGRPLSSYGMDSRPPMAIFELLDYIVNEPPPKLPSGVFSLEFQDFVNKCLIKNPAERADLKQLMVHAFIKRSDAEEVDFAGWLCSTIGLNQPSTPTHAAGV
pIC50: −log10 of the molar value.
Below: a set of entries, each annotated with reported pIC50.

Would you please look over these solved cases?
>  <Compound>
Cc1ccc(Oc2ccc(Nc3snc(O)c3C(=N)NCC3CCCCC3)cc2)cn1 [drawing 824]

>  <pIC50>
6.30 to 7.00

$$$$
>  <Compound>
N=C(NCC1CCCCC1)c1c(O)nsc1Nc1ccc(Oc2cncnc2)cc1 [drawing 827]

>  <pIC50>
< 6.30

$$$$
>  <Compound>
N=C(NCCN1CCNCC1)c1c(O)nsc1Nc1ccc(Oc2cc(F)cc(F)c2)cc1 [drawing 829]

>  <pIC50>
7.00 to 9.00

$$$$

Alright, here's another compound for you.
Prompt line: Field request: pIC50 | item: N=C(NCC1CCCCC1)c1c(O)nsc1Nc1ccc(Sc2ccccc2)cc1 [drawing 826]
Response line: 7.00 to 9.00

----------
Below: a set of entries, each annotated with reported IC50.
target: MEK1^CA (human GST-MEK1, constitutively active, Ser218Asp and Ser222Asp) (Homo sapiens, UniProt Q02750, S218D/S222D); construct: GST; made in house; host or cells: Escherichia coli; test: MEK1 enzymatic activity assay (MEK1^CA / ERK2 / MBP, [γ-33P]ATP incorporation); assay type: biochemical; conditions: Table 1, compounds of formula I; read-out: Avg IC50

Would you please look over these solved cases?
>  <Compound>
CC(CO)NC(=N)c1c(O)nsc1Nc1ccc(Oc2ccc(F)cc2)c(Cl)c1 (centres unmarked) [compound 392]

>  <Value Kind>
IC50

>  <Experimental Result>
100 to 500 nM

$$$$
>  <Compound>
CC(CO)NC(=N)c1c(O)nsc1Nc1ccc(Oc2ccc(C(F)(F)F)cc2)c(F)c1 (centres unmarked) [compound 378]

>  <Value Kind>
IC50

>  <Experimental Result>
100 to 500 nM

$$$$

Prompt line: Field request: IC50 | item: Cc1cc(Oc2cc(F)cc(F)c2)ccc1Nc1snc(O)c1C(=N)NC(C)C [compound 457]
Response line: 1 to 100 nM

Prompt line: Field request: IC50 | item: CC(C)NC(=N)c1c(O)nsc1Nc1cc(Cl)cc(Cl)c1 [compound 224]
Response line: 100 to 500 nM

Prompt line: Field request: IC50 | item: N=C(NCC(O)O)c1c(O)nsc1Nc1ccc(Oc2ccc(Cl)cc2Cl)cc1 [compound 229]
Response line: 1 to 100 nM

----------
target: MEK1^CA (human GST-MEK1, constitutively active, Ser218Asp and Ser222Asp) (Homo sapiens, UniProt Q02750, S218D/S222D); construct: GST; made in house; host or cells: Escherichia coli; assay: MEK1 enzymatic activity assay (MEK1^CA / ERK2 / MBP, [γ-33P]ATP incorporation); format: biochemical; settings: Table 1, compounds of formula I; read-out: Avg IC50
pIC50: −log10 of the molar value.
Below: a set of entries, each annotated with reported pIC50.

>  <Molecule>
COc1cccc(F)c1Oc1ccc(Nc2snc(O)c2C(=N)NC(C)CO)cc1 (stereo not drawn) [compound 281]

>  <Experimental Result>
6.30 to 7.00

$$$$
>  <Molecule>
CC(C)NC(=N)c1c(O)nsc1Nc1ccc(Oc2cccc(C(F)(F)F)c2)cc1 [compound 275]

>  <Experimental Result>
7.00 to 9.00

$$$$
>  <Molecule>
Cc1cc(Oc2cc(F)cc(F)c2)ccc1Nc1snc(O)c1C(=N)NC(C)CO (stereo not drawn) [compound 458]

>  <Experimental Result>
7.00 to 9.00

$$$$
>  <Molecule>
Cc1cc(Oc2ccc(F)c(F)c2)ccc1Nc1snc(O)c1C(=N)NC(C)C [compound 459]

>  <Experimental Result>
7.00 to 9.00

$$$$
>  <Molecule>
COCC(C)NC(=N)c1c(O)nsc1Nc1ccc(Oc2ccccc2)cc1 (stereo not drawn) [compound 178]

>  <Experimental Result>
7.00 to 9.00

$$$$

Alright, here's another molecule for you.
Prompt line: Field request: pIC50 | item: N=C(NCc1ccccc1)c1c(O)nsc1Nc1ccc(Oc2cc(Cl)ccc2Cl)cc1 [compound 454]
Response line: 7.00 to 9.00

----------
Below: a set of entries, each annotated with reported pIC50.
target: MEK1^CA (human GST-MEK1, constitutively active, Ser218Asp and Ser222Asp) (Homo sapiens, UniProt Q02750, S218D/S222D); construct: GST; made in house; host or cells: Escherichia coli; test: MEK1 enzymatic activity assay (MEK1^CA / ERK2 / MBP, [γ-33P]ATP incorporation); type: biochemical; conditions: Table 1, compounds of formula I; read-out: Avg IC50
pIC50: −log10 of the molar value.

Prompt line: Field request: pIC50 | item: N=C(N[C@H]1CC[C@H](O)CC1)c1c(O)nsc1Nc1ccc(Oc2ccccc2)cc1 [compound 152]
Response line: 7.00 to 9.00

----------
Below: a set of entries, each annotated with reported IC50.
target: MEK1^CA (human GST-MEK1, constitutively active, Ser218Asp and Ser222Asp) (Homo sapiens, UniProt Q02750, S218D/S222D); construct: GST; made in house; host or cells: Escherichia coli; assay: MEK1 enzymatic activity assay (MEK1^CA / ERK2 / MBP, [γ-33P]ATP incorporation); format: biochemical; conditions: Table 1, compounds of formula I; read-out: Avg IC50

Would you please look over these solved cases?
>  <Compound>
CC(CNC(=N)c1c(O)nsc1Nc1ccc(Oc2ccccc2)cc1)c1ccccc1 (stereo not drawn)

>  <IC50>
1 to 100 nM

$$$$
>  <Compound>
N=C(NCC1CCCCC1)c1c(O)nsc1Nc1ccc(/C=C/c2ccccc2)cc1

>  <IC50>
> 500 nM

$$$$
>  <Compound>
N=C(NCC1CCCCC1)c1c(O)nsc1NCC1CC1

>  <IC50>
> 500 nM

$$$$
>  <Compound>
N=C(NCCO)c1c(O)nsc1Nc1ccc(Oc2ccc(F)cc2)cc1

>  <IC50>
> 500 nM

$$$$
>  <Compound>
N=C(NCCOc1ccccc1)c1c(O)nsc1NCC1CCCO1 (stereo not drawn)

>  <IC50>
> 500 nM

$$$$

Prompt line: Field request: IC50 | item: N=C(NCC(O)CO)c1c(O)nsc1Nc1ccc(Oc2ccccc2C(=O)NCC(O)CO)cc1 (stereo not drawn)
Response line: > 500 nM

Prompt line: Field request: IC50 | item: COC(=O)c1ccccc1Oc1ccc(Nc2snc(O)c2C(=N)NC(C)CO)cc1 (stereo not drawn)
Response line: 1 to 100 nM

Prompt line: Field request: IC50 | item: Cc1cccc(C)c1Oc1ccc(Nc2snc(O)c2C(=N)NC(C)CO)cc1 (stereo not drawn)
Response line: > 500 nM

Prompt line: Field request: IC50 | item: COc1ccc(Nc2snc(O)c2C(=N)NCC2CCCCC2)cc1
Response line: > 500 nM

----------
Below: a set of entries, each annotated with reported pIC50.
biological target: MEK1^CA (human GST-MEK1, constitutively active, Ser218Asp and Ser222Asp) (Homo sapiens, UniProt Q02750, S218D/S222D); construct: GST; made in house; host or cells: Escherichia coli; experiment: MEK1 enzymatic activity assay (MEK1^CA / ERK2 / MBP, [γ-33P]ATP incorporation); assay type: biochemical; details: Table 1, compounds of formula I; read-out: Avg IC50
pIC50: −log10 of the molar value.

>  <Molecule>
CC(C)NC(=N)c1c(O)nsc1Nc1ccc2c(c1)Cc1ccccc1-2

>  <pIC50>
< 6.30

$$$$
>  <Molecule>
COc1cccc(F)c1Oc1ccc(Nc2snc(O)c2C(=N)NC(C)C)cc1

>  <pIC50>
< 6.30

$$$$
>  <Molecule>
CC(C)NC(=N)c1c(O)nsc1Nc1ccc(Oc2cccc(F)c2)cc1

>  <pIC50>
7.00 to 9.00

$$$$
>  <Molecule>
CC(CCc1ccccc1)NC(=N)c1c(O)nsc1Nc1ccc(Oc2ccccc2)cc1 (stereo not drawn)

>  <pIC50>
7.00 to 9.00

$$$$
>  <Molecule>
CC(O)CNC(=N)c1c(O)nsc1Nc1ccc(-c2nc3ccccc3[nH]2)cc1 (stereo not drawn)

>  <pIC50>
< 6.30

$$$$

Alright, here's another molecule for you.
Prompt line: Field request: pIC50 | item: Cc1ccc(Nc2snc(O)c2C(=N)NC2CCCC2)cc1
Response line: 6.30 to 7.00

----------
Molecular target: MEK1^CA (human GST-MEK1, constitutively active, Ser218Asp and Ser222Asp) (Homo sapiens, UniProt Q02750, S218D/S222D)
Construct: GST; made in house; host or cells: Escherichia coli
Experiment: MEK1 enzymatic activity assay (MEK1^CA / ERK2 / MBP, [γ-33P]ATP incorporation)
Assay type: biochemical
Settings: Table 1, compounds of formula I; read-out: Avg IC50
Source text: Materials and preparation of reagents: Human GST-MEK1 and the constitutively active allele GST-MEK1^CA (harboring the mutations Ser218Asp and Ser222Asp) were subcloned into the […] expression vector pGEM4Z (Promega, Madison, Wis.) from the wild type human MEK1 cDNA. GST-MEK1^CA was expressed in Escherichia coli and partially purified using Glutathione Sepharose 4B affinity resin (Amersham Pharmacia Biotech, Piscataway, N.J.). […]
pIC50: −log10 of the molar value.
Value Kind: pIC50

Would you please look over these solved cases?
>  <Compound>
N=C(NCc1ccccn1)c1c(O)nsc1Nc1ccc(Oc2ccccc2)cc1

>  <pIC50>
6.30 to 7.00

$$$$
>  <Compound>
CN1CCN(C(=N)c2c(O)nsc2Nc2ccc(Oc3cc(F)cc(F)c3)cc2)CC1

>  <pIC50>
< 6.30

$$$$
>  <Compound>
CN(O)C(=N)c1c(O)nsc1Nc1ccc(Oc2ccccc2)cc1

>  <pIC50>
6.30 to 7.00

$$$$
>  <Compound>
Cc1cc(Oc2cccc(F)c2F)ccc1Nc1snc(O)c1C(=N)N(O)C(C)C

>  <pIC50>
6.30 to 7.00

$$$$

Prompt line: Field request: pIC50 | item: N=C(NCc1ccccc1)c1c(O)nsc1Nc1ccc(Oc2ccccc2)cc1
Response line: 6.30 to 7.00

Prompt line: Field request: pIC50 | item: CC(CO)NC(=N)c1c(O)nsc1Nc1ccc(Oc2cc(F)ccc2F)cc1 (stereo not drawn)
Response line: 7.00 to 9.00
